# Tested on: SK-OV-3
# method.summary: NCI tumour cell line growth inhibition, 48 h
Calls of active or inactive are those of the source. Rule as the data show it: active = GI50 up to about 1.1 µM and inactive = higher.
endpoint.label: GI50

Query: Determine its reported GI50: `O=[N+]([O-])c1ccc2c(c1)Nc1c3ccccc3nc3cccc-2c13`
Reply: 2.04 µM (inactive)

Query: Determine its reported GI50: `Cc1ccnc2nc(-c3cccc(Cl)c3)cc(O)c12`
Reply: 0.267 µM (active)

Query: Determine its reported GI50: `Oc1cccc2c1NC1=C(CCC/C1=C\c1ccccc1)C2`
Reply: > 100 µM (inactive)

Query: Determine its reported GI50: `CCC[C@H](C)C[C@H](C)C[C@H](C)/C=C(\C)[C@@H](O)[C@@H](C)C(=O)CC`
Reply: 36.2 µM (inactive)

Query: Determine its reported GI50: `Cn1c(=O)cc(NCCc2ccccc2)[nH]c1=O`
Reply: 53.6 µM (inactive)

Query: Determine its reported GI50: `Cc1nc(N)nc(S)c1CCC(=O)O`
Reply: > 100 µM (inactive)

Query: Determine its reported GI50: N#CC1=C(N)N(c2ccccc2)C(c2ccco2)C1(C#N)C#N (configuration not stated)
Reply: 77.8 µM (inactive)

Query: Determine its reported GI50: `O=C(/C=C(\C(=O)c1cccs1)c1cccs1)c1ccc(C(=O)/C=C(\C(=O)c2cccs2)c2cccs2)cc1`
Reply: > 100 µM (inactive)

Query: Determine its reported GI50: `CCc1ccccc1NC(=O)C1=C(C)NC(C)=C(C(=O)Nc2ccccc2CC)C1c1cccc([N+](=O)[O-])c1`
Reply: > 100 µM (inactive)

Query: Determine its reported GI50: `CCN(CC)C(=O)N1CCN(C=S)CC1`
Reply: > 100 µM (inactive)

Query: Determine its reported GI50: `Cc1n2nc(N)sc2n[n+]1CC(=O)c1ccccc1`
Reply: 24.3 µM (inactive)

Query: Determine its reported GI50: CC(=O)O[C@@H]1CC[C@@]2(C)C(=O)C34C[C@@]5(C)C([C@@H](C)CCCC(C)C)CCC5(C)[C@](O)(O3)C(=O)[C@H]4C2C1(C)C (some centres not stated)
Reply: 18.3 µM (inactive)

Query: Determine its reported GI50: `CO[C@@H]1C[C@H]2N3CC[C@@]2(c2cc4c(cc2C3)OCO4)[C@H]2O[C@@H]12`
Reply: > 100 µM (inactive)

Query: Determine its reported GI50: `Nc1nc(N)c2c(-c3ccccc3)ccnc2n1`
Reply: > 100 µM (inactive)

Query: Determine its reported GI50: `COc1cc(N(CCC#N)CCC#N)ccc1C(=N/NC(=O)c1cc(Br)ccc1O)/N=N/c1ccc(C)cc1`
Reply: 24.2 µM (inactive)

Query: Determine its reported GI50: `COc1ccc(-c2cc(=O)c3c(O)cccc3o2)c(OC)c1OC`
Reply: > 100 µM (inactive)

Query: Determine its reported GI50: OC(COc1ccccc1)CN1CCCCC1 (configuration not stated)
Reply: > 100 µM (inactive)

Query: Determine its reported GI50: `COCCOCOc1ccc(OCc2ccccc2)cc1`
Reply: > 100 µM (inactive)

Query: Determine its reported GI50: `COc1cccc2c1C(=O)c1ccc3cc(CO)cc(O)c3c1C2=O`
Reply: 2.33 µM (inactive)

Query: Determine its reported GI50: `NNc1nnc(CCCCCCCCc2nnc(NN)n2N)n1N`
Reply: > 100 µM (inactive)

Query: Determine its reported GI50: C=C1CC2(CC(c3ccccc3Cl)OC(c3ccccc3Cl)C2)OC1=O (configuration not stated)
Reply: 6.87 µM (inactive)

Query: Determine its reported GI50: CCC(CO)COC(=O)/C=C/C(=O)OCC(CC)CO (configuration not stated)
Reply: > 100 µM (inactive)
